- target_or_system: human D2R/β-arrestin (Homo sapiens (Human))
- procedure_text: cell-based
- condition_parameters: cAMP Antagonist, CHO-K1 cells expressing human D2R/β-arrestin; antagonist mode, 2.5 μM forskolin and 2.7 nM quinpirole
# IC50 per record follows

Here's what some known entries look like.
[[record]]
compound = "CC1(Oc2ccc(Cl)cc2)CCN(CCOc2ccc(Cl)cc2)CC1"
target_or_system = "human D2R/β-arrestin (Homo sapiens (Human))"
readout_label = "IC50"
result = "> 30000 nM"

[[record]]
compound = "CC1(Oc2ccc(Cl)cc2)CCN(CCCCOc2ccccc2)C1 (stereo not drawn)"
target_or_system = "human D2R/β-arrestin (Homo sapiens (Human))"
readout_label = "IC50"
result = "100 to 1000 nM"

[[record]]
compound = "FC(F)(F)c1ccccc1OCCN1CCC2(CC1)CC2c1ccc(Cl)cc1 (single isomer, unassigned) [Compound 216a]"
target_or_system = "human D2R/β-arrestin (Homo sapiens (Human))"
readout_label = "IC50"
result = "1000 to 10000 nM"

[[record]]
compound = "OC(c1ccccc1)C1(O)CCN(CCOc2ccccc2C(F)(F)F)CC1 (stereo not drawn)"
target_or_system = "human D2R/β-arrestin (Homo sapiens (Human))"
readout_label = "IC50"
result = "100 to 1000 nM"


*Q* Please give measured IC50 of the following entry: CC1(Oc2ccc(Cl)cc2)CCN(CCOc2ccccc2F)CC1
*A* > 30000 nM

*Q* Please give measured IC50 of the following entry: CC1(Oc2ccccn2)CCN(CCOc2ccc(C(F)(F)F)cc2)CC1
*A* > 30000 nM

*Q* Please give measured IC50 of the following entry: CC1(Oc2cnccn2)CCN(CCOc2ccccc2)C1 (stereo not drawn)
*A* > 30000 nM

*Q* Please give measured IC50 of the following entry: CC1(Oc2ccccc2)CCN(CCCc2ccccc2C(F)(F)F)CC1
*A* 100 to 1000 nM

*Q* Please give measured IC50 of the following entry: CC1(Oc2ccc(Cl)cc2)CCN(CCOc2cccnc2C(F)(F)F)CC1
*A* > 30000 nM

---

- target_or_system: human D2R/β-arrestin (Homo sapiens (Human))
- procedure_text: Gi/cAMP agonist assay (Lance Ultra cAMP, forskolin)
- Type: cell-based
- condition_parameters: CHO-K1 cells expressing human D2R/β-arrestin; agonist mode, 2.5 μM forskolin
pEC50: −log10 of the molar value.
readout_label: pEC50

[[record]]
compound = "CC1(Oc2ccc(Cl)cc2)CCN(CCOc2ccncc2C(F)(F)F)CC1"
target_or_system = "human D2R/β-arrestin (Homo sapiens (Human))"
readout_label = "pEC50"
result = "5.00 to 6.00"


*Q* Please give measured pEC50 of the following entry: CCc1ccccc1OCCN1CCC(C)(Oc2ccccc2)CC1
*A* > 7.00

*Q* Please give measured pEC50 of the following entry: CC1(O)CCN(CC2COc3ccccc3O2)CC1 (centres unmarked)
*A* > 7.00

*Q* Please give measured pEC50 of the following entry: CC1(Oc2ccc(Cl)cc2)CCN(CCOc2ccc3ncoc3c2)C1 (centres unmarked)
*A* > 7.00

---

- target_or_system: human D2R/β-arrestin (Homo sapiens (Human))
- procedure_text: Gi/cAMP agonist assay (Lance Ultra cAMP, forskolin)
- Type: cell-based
- condition_parameters: CHO-K1 cells expressing human D2R/β-arrestin; agonist mode, 2.5 μM forskolin
readout_label: EC50

Here's what some known entries look like.
[[record]]
molecule = "CC1(Oc2ccc(Cl)cc2)CCN(CC2COc3ccccc3O2)CC1 (stereo not shown) [Compound 142]"
target_or_system = "human D2R/β-arrestin (Homo sapiens (Human))"
result = "< 0.1 µM"

[[record]]
molecule = "CC1(Oc2cnccn2)CCN(CCOc2ccccc2)C1 (stereo not shown) [Example 60]"
target_or_system = "human D2R/β-arrestin (Homo sapiens (Human))"
result = "< 0.1 µM"

[[record]]
molecule = "CC1(Oc2ccc(Cl)cc2)CCN(CCCCOc2ccc3ncsc3c2)C1 (stereo not shown) [Compound 29]"
target_or_system = "human D2R/β-arrestin (Homo sapiens (Human))"
result = "> 30 µM"

[[record]]
molecule = "CC(C)C1(O)CCN(CCOc2ccccc2C(F)(F)F)CC1 [Compound 176]"
target_or_system = "human D2R/β-arrestin (Homo sapiens (Human))"
result = "> 30 µM"


Proceeding to the next molecule to report its EC50.
*Q* Please give measured EC50 of the following entry: CC1(Oc2ccc(Cl)cc2)CCN(CCOc2cc(F)ccc2C(F)(F)F)CC1 [Compound 122]
*A* < 0.1 µM

---

- target_or_system: human D2R/β-arrestin (Homo sapiens (Human), UniProt P14416)
- Sequence (P14416 whole entry): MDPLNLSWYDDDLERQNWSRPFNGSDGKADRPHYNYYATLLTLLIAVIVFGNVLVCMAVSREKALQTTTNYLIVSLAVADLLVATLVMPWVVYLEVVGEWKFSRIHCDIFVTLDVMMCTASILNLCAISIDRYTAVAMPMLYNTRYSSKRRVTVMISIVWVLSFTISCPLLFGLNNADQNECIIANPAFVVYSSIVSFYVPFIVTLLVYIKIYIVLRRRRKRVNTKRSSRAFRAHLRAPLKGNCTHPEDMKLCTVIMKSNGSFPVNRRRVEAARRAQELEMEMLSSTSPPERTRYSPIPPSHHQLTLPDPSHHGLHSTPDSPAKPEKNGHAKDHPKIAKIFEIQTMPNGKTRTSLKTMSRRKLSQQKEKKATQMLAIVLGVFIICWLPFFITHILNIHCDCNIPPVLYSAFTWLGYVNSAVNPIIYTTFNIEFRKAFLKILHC
- procedure_text: cell-based
- condition_parameters: cAMP Antagonist, CHO-K1 cells expressing human D2R/β-arrestin; antagonist mode, 2.5 μM forskolin and 2.7 nM quinpirole
# IC50 per record follows

*Q* Please give measured IC50 of the following entry: Cc1ccccc1OC1(C)CCN(CCOc2ccccc2)C1 (centres unmarked)
*A* > 30 µM

*Q* Please give measured IC50 of the following entry: CC1(Oc2cccc(C(F)(F)F)c2)CCCN(CCOc2cc(F)ccc2F)C1 (centres unmarked)
*A* 1 to 10 µM

*Q* Please give measured IC50 of the following entry: CC1(Oc2ccc(Cl)cc2)CCN(CCn2ccccc2=O)C1 (centres unmarked)
*A* > 30 µM

*Q* Please give measured IC50 of the following entry: CC1(Oc2ccc(F)cc2)CCN(CCOc2ccccc2)C1 (centres unmarked)
*A* > 30 µM

*Q* Please give measured IC50 of the following entry: Fc1ccccc1OCCN1CCC2(CC1)CCN2c1ccc(Cl)cc1
*A* < 0.1 µM

---

- target_or_system: human D2R/β-arrestin (Homo sapiens (Human), UniProt P14416)
- condition_parameters: read-out: cAMP Antagonist; CHO-K1 cells expressing human D2R/β-arrestin; antagonist mode, 2.5 μM forskolin and 2.7 nM quinpirole
readout_label: IC50

Here's what some known entries look like.
[[record]]
compound = "CC1(Oc2ccncc2)CCN(CCOc2ccccc2)C1 (stereo not shown) [Example 59b]"
result = "> 30 µM"

[[record]]
compound = "CC1(Oc2ccc(Cl)cc2)CCCN(CCOc2ccccc2F)C1 (stereo not shown) [Example 98a]"
result = "< 0.1 µM"

[[record]]
compound = "FC(F)(F)c1ccccc1OCCN1CCC2(CC1)CC2c1ccccc1 (stereo not shown) [Example 102a]"
result = "> 30 µM"


*Q* Please give measured IC50 of the following entry: CC1(Oc2ccc(Cl)cc2)CCN(CCOc2ccc3ncsc3c2)C1 (stereo not shown) [Compound 18b]
*A* > 30 µM

---

# pIC50 per record follows
- target_or_system: human D2R/β-arrestin (Homo sapiens (Human))
- procedure_text: cell-based
- condition_parameters: β-arrestin Antagonist, CHO-K1 cells expressing human D2R/β-arrestin; antagonist mode, quinpirole 130 nM
pIC50: −log10 of the molar value.

Here's what some known entries look like.
[[record]]
molecule = "CC1(Oc2ccc(Cl)cc2)CCN(CCOc2ncccc2C(F)(F)F)CC1"
target_or_system = "human D2R/β-arrestin (Homo sapiens (Human))"
result = "6.00 to 7.00"

[[record]]
molecule = "CC(=O)N(C)C1(C)CCN(C[C@H]2COc3ccccc3O2)CC1"
target_or_system = "human D2R/β-arrestin (Homo sapiens (Human))"
result = "< 4.52"

[[record]]
molecule = "CC1(Oc2ccc(Cl)cc2)CCN(CCOc2cc(Cl)ccc2C(F)(F)F)CC1"
target_or_system = "human D2R/β-arrestin (Homo sapiens (Human))"
result = "5.00 to 6.00"

[[record]]
molecule = "CC1(Oc2ccccc2)CCN(CCOc2ccccn2)CC1"
target_or_system = "human D2R/β-arrestin (Homo sapiens (Human))"
result = "< 4.52"

[[record]]
molecule = "Cc1ccccc1OCCN1CCC(C)(Oc2ccc(Cl)cc2)C1 (stereo not drawn)"
target_or_system = "human D2R/β-arrestin (Homo sapiens (Human))"
result = "5.00 to 6.00"


*Q* Under human D2R/β-arrestin (Homo sapiens (Human)), report pIC50 for CC1(Oc2ccc(Cl)cc2)CCN(CCOc2ccccc2C(F)(F)F)CC1
*A* 6.00 to 7.00

*Q* Under human D2R/β-arrestin (Homo sapiens (Human)), report pIC50 for CC1(Oc2ccccc2)CCN(CCOc2ccccc2F)CC1
*A* < 4.52

*Q* Under human D2R/β-arrestin (Homo sapiens (Human)), report pIC50 for CC1(Oc2cccc(C(F)(F)F)c2)CCN(CCOc2ccccc2)C1 (stereo not drawn)
*A* 5.00 to 6.00

*Q* Under human D2R/β-arrestin (Homo sapiens (Human)), report pIC50 for CC1(O)CCCN(CCOc2ccccc2C(F)(F)F)C1 (stereo not drawn)
*A* 4.52 to 5.00

---

- target_or_system: human D2R/β-arrestin (Homo sapiens (Human))
- procedure_text: Gi/cAMP agonist assay (Lance Ultra cAMP, forskolin)
- Type: cell-based
- condition_parameters: CHO-K1 cells expressing human D2R/β-arrestin; agonist mode, 2.5 μM forskolin
# EC50 per record follows

Here's what some known entries look like.
[[record]]
molecule = "Cc1ccccc1OCCN1CCC(C)(Oc2ccc(Cl)cc2)C1 (stereo not drawn)"
result = "> 30 µM"

[[record]]
molecule = "CC1(Oc2ccccc2)CCN(CCn2cccc(C(F)(F)F)c2=O)CC1"
result = "10 to 30 µM"

[[record]]
molecule = "CC1(Oc2ccc(Cl)cc2Cl)CCN(CCOc2ccccc2)C1 (stereo not drawn)"
result = "< 0.1 µM"

[[record]]
molecule = "CC1(Oc2ccc(Cl)cc2)CCCN(C(C)(C)COc2ccccc2)C1 (stereo not drawn)"
result = "> 30 µM"

[[record]]
molecule = "CNC(=O)C1(C)CCN(CC2COc3ccccc3O2)CC1 (single isomer, unassigned) [Compound 202b]"
result = "0.1 to 1 µM"


*Q* Please give measured EC50 of the following entry: CC1(C(=O)Nc2ccccc2)CCN(CC2COc3ccccc3O2)CC1 (stereo not drawn) [Compound 204]
*A* 0.1 to 1 µM

*Q* Please give measured EC50 of the following entry: CC1(Oc2ccc(Cl)cc2)CCCN(CCOc2ccccc2)C1 (stereo not drawn)
*A* > 30 µM

*Q* Please give measured EC50 of the following entry: CC1(Cc2ccc(Cl)cc2)CCN(CCOc2ccccc2C(F)(F)F)CC1
*A* 1 to 10 µM

*Q* Please give measured EC50 of the following entry: c1ccc(OCCN2CCC3(Cc4ccccc4O3)C2)cc1 (stereo not drawn)
*A* > 30 µM
